# Tested on: myeloid leukemia cell line SET2
# RUN_DESCRIPTION: CellTitre Glo in vitro cytotoxicity, SET2
# Type: cell-based
# CONDITION_SET: Homo sapiens, SET-2, read-out: IC50 (cell selectivity data)
ATTRIBUTE_MEASURED: IC50

[in] Which value of IC50 has been reported for NS(=O)(=O)OC[C@H]1O[C@@H](n2cnc3c(NC(=O)N[C@@H](CCC(=O)O)C(=O)O)ncnc32)[C@H](O)[C@@H]1O [P-AMS] in the records?
[out] > 3000 nM

###

# Test system: normal human fibroblast MRC5
# RUN_DESCRIPTION: CellTitre Glo in vitro cytotoxicity, MRC5
# Type: cell-based
Binary call on IC50 with cut-off 100 µM: strictly below means Condition met, and equality or higher means Condition not met.

// known answers, use as guide
SMILES_DATA: Cc1cn([C@H]2C[C@H](O)[C@@H](COS(N)(=O)=O)O2)c(=O)[nH]c1=O
ASSIGNED_CATEGORY: Condition not met

SMILES_DATA: NS(=O)(=O)OC[C@H]1O[C@@H](n2cnc3c(NC4CC4)ncnc32)[C@H](O)[C@@H]1O
ASSIGNED_CATEGORY: Condition met

SMILES_DATA: Nc1nc(-c2ccccc2)nc2c1ncn2[C@@H]1O[C@H](COS(N)(=O)=O)[C@@H](O)[C@H]1O
ASSIGNED_CATEGORY: Condition not met

SMILES_DATA: CCCc1nc2c(N)ncnc2n1[C@@H]1O[C@H](COS(N)(=O)=O)[C@@H](O)[C@H]1O
ASSIGNED_CATEGORY: Condition not met

SMILES_DATA: Nc1ncnc2c1ncn2[C@@H]1O[C@H](COS(N)(=O)=O)[C@@H](O)[C@H]1O
ASSIGNED_CATEGORY: Condition met

[in] Could you please tell me whether IC50 recorded for "NS(=O)(=O)OC[C@H]1O[C@@H](n2cnc3c(O)ncnc32)[C@H](O)[C@@H]1O" is less than 100 µM?
[out] Condition not met

[in] Problem: For the compound "Nc1ccn([C@@H]2O[C@H](COS(N)(=O)=O)[C@@H](O)[C@H]2O)c(=O)n1" , is IC50 under 100 µM?
[out] Condition not met

[in] Determine whether this compound shows IC50 lower than 100 µM (ties excluded): "Nc1ncnc2c1ncn2[C@@H]1O[C@H](CNS(N)(=O)=O)[C@@H](O)[C@H]1O"
[out] Condition met

[in] Below 100 µM on IC50? Entry "Nc1nc(Nc2ccccc2)nc2c1ncn2[C@@H]1O[C@H](COS(N)(=O)=O)[C@@H](O)[C@H]1O"
[out] Condition not met

###

# RUN_DESCRIPTION: Cell permeability in CACO-2 cells
# Assay type: in vitro ADME, human
# CONDITION_SET: human, Caco-2; A-B
ATTRIBUTE_MEASURED: Papp A→B (×10⁻⁶ cm/s)
Output spec: scalar in ×10⁻⁶ cm/s, unitless text.

[in] # Papp A→B lookup, item CN(C)C(=O)C(CCN1CCC(O)(c2ccc(Cl)cc2)CC1)(c1ccccc1)c1ccccc1 [Loperamide]
[out] 2.2

###

# System: hepatocellular carcinoma HepG2
# RUN_DESCRIPTION: CellTitre Glo in vitro cytotoxicity, HepG2
# Type: cell-based
# CONDITION_SET: read-out: HepG2 IC50
ATTRIBUTE_MEASURED: IC50 (nM)
Lab book: enter the figure in nM, no units written.

[in] What reported IC50 corresponds to "Nc1ncnc2c1ncn2[C@@H]1O[C@H](COS(N)(=O)=O)[C@@H](O)[C@H]1O" on hepatocellular carcinoma HepG2?
[out] 9

###

# Tested on: Jurkat T cells
# RUN_DESCRIPTION: Jurkat viability with prodrug plus supernatant from CPG2-secreting HEK293T cells
# Assay type: cell-based, human
# CONDITION_SET: with CPG2 supernatant
# Protocol: The in vitro cytotoxicity of AMS (structure 1c) and its prodrug variant (structure 1a) was tested against a variety of cell lines using a CellTitre Glo® assay (Promega, Madison, WI). […] Jurkat T cells were exposed to increasing concentrations of AMS (circle) or Pro-AMS with media alone (triangle) or supernatant from CPG2-secreting HEK293T cells (square). Cell viability was measured at 48 hours by CellTitre-Glo® luminescence assay. […]
ATTRIBUTE_MEASURED: pIC50
Lab note: report pIC50 as minus log10 of the concentration in molar units, number only.

[in] I am curious: what pIC50 value has been reported for O=C(O)CC[C@H](NC(=O)Oc1ccc(N(CCI)CCI)cc1)C(=O)O [ZD2767P] ?
[out] 5.77

###

# RUN_DESCRIPTION: Cell permeability in CACO-2 cells
# Assay type: in vitro ADME, human
# CONDITION_SET: human, Caco-2, with Ver (so in the source); concentration not stated; A-B, + Ver
ATTRIBUTE_MEASURED: Papp A→B (×10⁻⁶ cm/s)
Field format: number, assumed ×10⁻⁶ cm/s, no unit text.

[in] Value lookup for Papp A→B; key = CN(C)C(=O)C(CCN1CCC(O)(c2ccc(Cl)cc2)CC1)(c1ccccc1)c1ccccc1 [Loperamide]
[out] 10.5

###

# RUN_DESCRIPTION: Cell permeability in CACO-2 cells
# Assay type: in vitro ADME, human
# CONDITION_SET: human, Caco-2; B-A
ATTRIBUTE_MEASURED: Papp B→A

[in] Papp B→A for CN(C)C(=O)C(CCN1CCC(O)(c2ccc(Cl)cc2)CC1)(c1ccccc1)c1ccccc1 [Loperamide] ?
[out] 16.9 ×10⁻⁶ cm/s

###

# RUN_DESCRIPTION: Cell permeability in CACO-2 cells
# Format: in vitro ADME, human
# CONDITION_SET: human, Caco-2, with Ver (so in the source); concentration not stated; B-A, + Ver
ATTRIBUTE_MEASURED: Papp B→A (×10⁻⁶ cm/s)
Please give a number only; it is taken to be in ×10⁻⁶ cm/s.

[in] For CN(C)C(=O)C(CCN1CCC(O)(c2ccc(Cl)cc2)CC1)(c1ccccc1)c1ccccc1 [Loperamide] , what is its reported Papp B→A?
[out] 7.8

###

# System: normal human fibroblast MRC5
# RUN_DESCRIPTION: CellTitre Glo in vitro cytotoxicity, MRC5
# Type: cell-based
ATTRIBUTE_MEASURED: IC50 (µM)
Supply the numeric figure in µM, leaving out any unit text.

COMPOUND: COc1ncnc2c1ncn2[C@@H]1O[C@H](COS(N)(=O)=O)[C@@H](O)[C@H]1O [6-OMe-AMS]
MEASUREMENT_TARGET: normal human fibroblast MRC5
ATTRIBUTE_MEASURED: IC50
UNIT_OF_MEASURE: µM
TEST_VALUE: 129

Turning now to a further record.
[in] Request - read-out IC50 | tested on normal human fibroblast MRC5 | compound CNc1ncnc2c1ncn2[C@@H]1O[C@H](COS(N)(=O)=O)[C@@H](O)[C@H]1O [6-NHMe-AMS]
[out] 0.9

###

# Tested on: normal human fibroblast MRC5
# RUN_DESCRIPTION: CellTitre Glo in vitro cytotoxicity, MRC5
# Assay type: cell-based
pIC50: −log10 of the molar value.
ATTRIBUTE_MEASURED: pIC50

As a guide, the following entries are already answered.
COMPOUND: NS(=O)(=O)OC[C@H]1O[C@@H](n2ccc(=O)[nH]c2=O)[C@H](O)[C@@H]1O [UMS]
pIC50: < 3.30
//
COMPOUND: CN(C)c1ncnc2c1ncn2[C@@H]1O[C@H](COS(N)(=O)=O)[C@@H](O)[C@H]1O [6-NMe2-AMS]
pIC50: < 3.30

[in] Query: pIC50; subject: Nc1nc2c(ncn2[C@@H]2O[C@H](COS(N)(=O)=O)[C@@H](O)[C@H]2O)c(=O)[nH]1 [GMS]
[out] < 3.30
